- assay.text: self-splicing fitness, log relative to wild type (ln ratio); higher = more splicing; Tetrahymena group I intron in knt gene, E. coli kanamycin selection, DiMSum; sequences stand for … in CUCUCU…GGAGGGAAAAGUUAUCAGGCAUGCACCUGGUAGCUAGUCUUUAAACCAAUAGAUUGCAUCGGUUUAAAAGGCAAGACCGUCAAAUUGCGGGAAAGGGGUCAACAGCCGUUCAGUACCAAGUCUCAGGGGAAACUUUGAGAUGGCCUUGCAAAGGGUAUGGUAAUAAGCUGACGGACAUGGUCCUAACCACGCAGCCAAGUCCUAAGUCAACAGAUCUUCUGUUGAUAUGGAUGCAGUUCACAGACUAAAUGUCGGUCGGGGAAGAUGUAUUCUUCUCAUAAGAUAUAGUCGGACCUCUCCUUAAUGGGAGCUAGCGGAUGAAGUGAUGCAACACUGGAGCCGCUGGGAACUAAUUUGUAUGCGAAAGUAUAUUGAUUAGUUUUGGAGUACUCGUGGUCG;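 further: selection with 25 µg/mL kanamycin versus none on LB agar overnight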
- test.settings: 30 °C
Entry flag: true if self-splicing fitness (ln) reaches -2; false if it does not.

Does UCGCAGCAAUAUUACGGCUC have a reported self-splicing fitness (ln) of at least -2?
false

Query UGGGAGCAAUAUUACGGGGU next
true

Query CUGUAGCAAUAUUACGAUCG next
true

Query UCCUAGCAAUAUUACGUACC next
false

Query AUGCAGCAAUAUUACGAGUG next
false

Query CAAGAGCAAUAUUACGGAAG next
true

Query UGACAGCAAUAUUACGUCGU next
true

Query CUGCAGCAAUAUUACGAGGG next
false

Further cases:
Does GCCCAGCAAUAUUACGCGGU have a reported self-splicing fitness (ln) of at least -2?
false

Query UUAUAGCAAUAUUACGCCUG next
true

----------
- assay.text: self-splicing fitness, log relative to wild type (ln ratio); higher = more splicing; Tetrahymena group I intron in knt gene, E. coli kanamycin selection, DiMSum; sequences stand for … in CUCUCU…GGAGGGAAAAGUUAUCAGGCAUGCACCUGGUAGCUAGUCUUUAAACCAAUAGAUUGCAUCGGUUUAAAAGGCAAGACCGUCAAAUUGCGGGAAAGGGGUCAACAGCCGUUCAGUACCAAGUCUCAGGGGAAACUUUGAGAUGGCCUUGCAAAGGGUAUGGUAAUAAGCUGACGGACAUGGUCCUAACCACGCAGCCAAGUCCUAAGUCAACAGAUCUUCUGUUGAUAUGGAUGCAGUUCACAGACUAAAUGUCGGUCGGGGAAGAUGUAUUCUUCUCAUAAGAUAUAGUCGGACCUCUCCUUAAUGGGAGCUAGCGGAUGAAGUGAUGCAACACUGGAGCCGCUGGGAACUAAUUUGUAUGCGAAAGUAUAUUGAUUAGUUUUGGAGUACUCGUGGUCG
- test.settings: 37 °C
value.type: self-splicing fitness (ln)
// response body must contain only the number

Field request: self-splicing fitness (ln) | item: AUAUAGCAAUAUUACGAACU
0.111

Shift focus to the following entry.
Field request: self-splicing fitness (ln) | item: AAUGAGCAAUAUUACGUGCG
-1.99

----------
- assay.text: self-splicing fitness, log relative to wild type (ln ratio); higher = more splicing; Tetrahymena group I intron in knt gene, E. coli kanamycin selection, DiMSum; sequences stand for … in CUCUCU…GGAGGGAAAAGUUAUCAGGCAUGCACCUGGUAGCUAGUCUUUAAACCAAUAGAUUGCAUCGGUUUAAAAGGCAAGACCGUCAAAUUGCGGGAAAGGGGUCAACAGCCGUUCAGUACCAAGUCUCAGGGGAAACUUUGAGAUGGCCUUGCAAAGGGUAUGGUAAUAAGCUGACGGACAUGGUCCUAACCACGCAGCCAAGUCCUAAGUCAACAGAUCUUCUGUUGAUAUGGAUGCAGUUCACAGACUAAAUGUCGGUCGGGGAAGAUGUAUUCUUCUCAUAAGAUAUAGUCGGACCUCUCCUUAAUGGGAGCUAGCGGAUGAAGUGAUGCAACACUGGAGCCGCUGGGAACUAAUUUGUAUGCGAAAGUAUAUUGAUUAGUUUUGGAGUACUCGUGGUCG
- test.settings: 37 °C
value.type: self-splicing fitness (ln)
// response body must contain only the number

Field request: self-splicing fitness (ln) | item: GCAGAGCAAUAUUACGCCAU
-2.78

Query AUUGAGCAAUAUUACGGGCU next
-2.25

Query ACAGAGCAAUAUUACGGCUU next
-1.99

Query GUACAGCAAUAUUACGCAGU next
-3

Query CUAUAGCAAUAUUACGGUCG next
0.586

Further cases:
Field request: self-splicing fitness (ln) | item: AGGAAGCAAUAUUACGCACA
0.104

Query UCCGAGCAAUAUUACGCGAC next
-1.58

Query UGCGAGCAAUAUUACGCUUU next
-3.02

Query CUGAAGCAAUAUUACGUGAU next
-1.07

Query CUGUAGCAAUAUUACGAGUG next
0.314

Query AAGGAGCAAUAUUACGAUGU next
-2.28

Query CCAUAGCAAUAUUACGAAUG next
-1.15

Query CAGUAGCAAUAUUACGGUAU next
-3.02

Query GCCAAGCAAUAUUACGGAGG next
-1.08

Query CGAUAGCAAUAUUACGACCA next
-0.619

Query ACCGAGCAAUAUUACGCGAU next
-1.73

Query GGCGAGCAAUAUUACGGUAC next
-1.98

Query UGUGAGCAAUAUUACGCUUA next
-2.85

Query UCCCAGCAAUAUUACGAAAA next
-0.834

Query AGCCAGCAAUAUUACGUGUU next
-1.56

Query CCGAAGCAAUAUUACGAGGG next
-1.73

Query UAUAAGCAAUAUUACGGUGA next
-0.726

Query UACCAGCAAUAUUACGCAUG next
-1.09

Query AUCAAGCAAUAUUACGAUUG next
-3.41

Query UAAGAGCAAUAUUACGUUCC next
-1.98

Query GAAUAGCAAUAUUACGUUGG next
-2.77
